Values were extracted from paper PMC10291556.

# Test system: A2780cisR
# testName: MTT antiproliferative assay, 72 h
# Format: cell-based, human
# assayContext: Homo sapiens, A2780cisR, 72 h, read-out: IC50 A2780cisR
measuredProperty: IC50 (µM)

- O=C([O-])Cc1ccccc1Nc1c(Cl)cccc1Cl.[Na+] [DCF, reference compound]: 138
